The measurements presented in this section are drawn from patent US20240417398A1.

Test system: NCI-H2052
Test: Mesothelioma cell line proliferation assay (ATPlite), NCI-H2052
Assay type: cell-based
Conditions: NCI-H2052 cells, 6 days with compound, ATPlite cell viability
observation_type: EC50

**Query** Supply EC50 value. Item: C=CC(=O)NCC1Cc2c(OCc3cc(=O)[nH]c(=O)n3C)cccc2N(c2ccc(C(F)(F)F)cc2)C1 (single isomer, unassigned)
**Result** < 1000 nM

* * *

Test system: YAP/TAZ-TEAD transcription
Assay: Reporter gene assay for measuring the inhibition of YAP/TAZ-TEAD transcription (TEAD-responsive element luciferase reporter, Hek293T cells)
Type: cell-based
Settings: Hek293T cells transfected with TEAD-responsive element luciferase reporter, 24 hours incubation
Item-by-item account of IC50

C=CC(=O)NCC1Cc2ncccc2N(c2ccc(C(F)(F)F)cc2)C1 (single isomer, unassigned) :: < 1000 nM
COc1ccc2c(n1)CC(CNC(C)=O)CN2c1ccc(C(F)(F)F)cc1 (single isomer, unassigned) :: < 1000 nM
O=C(CC(F)(F)F)NCC1Cc2ncccc2N(c2ccc(C(F)(F)F)cc2)C1 (single isomer, unassigned) :: < 1000 nM
CCC(=O)NCC1Cc2ncccc2N(c2ccc(C(F)(F)F)cc2)C1 (single isomer, unassigned) :: < 1000 nM
CC(=O)NCC1(C)Cc2ncccc2N(c2ccc(C(F)(F)F)cc2)C1 (single isomer, unassigned) [Cpd. No. 47-En1] :: < 1000 nM

**Query** Let me know recorded IC50 for C=CC(=O)NCC1Cc2c(OCc3cc[nH]c(=O)c3)cccc2N(c2ccc(C(F)(F)F)cc2)C1 (single isomer, unassigned) , thanks.
**Result** < 1000 nM

**Query** Tell us which IC50 value is on record for CC(=O)NCC1Cc2nc(C)ccc2N(c2ccc(C(F)(F)F)cc2)C1 (single isomer, unassigned)
**Result** < 1000 nM

**Query** Using the record for [2H]C([2H])([2H])C(=O)NCC1Cc2ncccc2N(c2ccc(C(F)(F)F)cc2)C1 (single isomer, unassigned) [Cpd. No. 34-En2] , state its measured IC50.
**Result** < 1000 nM

**Query** Quickly give me recorded IC50 for [2H]C([2H])([2H])C(=O)NCC1Cc2ncccc2N(c2ccc(C(F)(F)F)cc2)C1 (single isomer, unassigned) [Cpd. No. 34-En1]
**Result** 1000 to 10000 nM

**Query** Supply IC50 value. Item: CC(=O)NCC1Cc2ncccc2N(c2ccc(C(F)(F)F)cc2)C1 (single isomer, unassigned)
**Result** < 1000 nM

**Query** Look up IC50 of CC(=O)NCC1(C)Cc2ncccc2N(c2ccc(C(F)(F)F)cc2)C1 (single isomer, unassigned) [Cpd. No. 47-En2] and report it.
**Result** > 10000 nM
